Where these numbers come from: the supplement of paper PMC10065799

System: AncSZ;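 note: 11-residue human phosphosite peptides and single-mutation variants displayed on the E. coli surface, counted by deep sequencing, each peptide's frequency after selection divided by its frequency in the unselected input library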;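 note: frequency after pTyr selection over input frequency; kinase dosed for 20-30% of maximal phosphorylation in three min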
Experiment: phosphorylation enrichment, bacterial display (enrichment ratio); higher = better substrate or ligand; peptides without Tyr show the background
Returns the class for an entry based on its phosphorylation enrichment. Class ranges: low end = under 0.8, middle = from 0.8 up to 1, high end = 1 and over

>  <sequence-chain>
AHAGKYGAEAL [HBA1_Y25_E24K]

>  <category>
low end

$$$$

For this sequence, which bin applies? KIIRWYVSSEG [ANK2_Y3907_R3906W]
high end

For this sequence, which bin applies? KMGNIYRTEFG [MRPL3_Y265_YF]
low end

For this sequence, which bin applies? DRLASYLDKAR [KRT14_Y129_V133A]
low end

For this sequence, which bin applies? FQNGMYGLHQD [SGSH_Y89_H84Y_YF]
low end

For this sequence, which bin applies? SLIEHYEPSET [PLCD1_Y258_R257H]
high end

For this sequence, which bin applies? FGRTFYNQAIM [MCCC2_Y196]
high end

For this sequence, which bin applies? SVVVPYEPAEV [TP53_Y220_P223A]
high end

For this sequence, which bin applies? ALRHFYKLNII [ETV6_Y402_YF]
middle

For this sequence, which bin applies? SRDTRYLVLAV [AMH_Y195]
middle

For this sequence, which bin applies? ECKHLYSRKEG [PTPN11_Y263_L261H]
low end

For this sequence, which bin applies? NSVLVYRNGDP [DCDC2_Y22_K17N]
low end

For this sequence, which bin applies? AVAFLYYKSIG [ADGRL4_Y301_V300L]
high end

For this sequence, which bin applies? LGGSPYPRVPV [FGFR1_Y701_G703R]
low end

For this sequence, which bin applies? LITILYIGFLG [KCNQ1_Y267_T265I]
high end

For this sequence, which bin applies? RKRQFYLYKGK [RSPO4_Y112_C107R]
low end

* * *

Target: Grb2 SH2 (UniProt P62993)
Sequence (P62993 whole entry, looked up): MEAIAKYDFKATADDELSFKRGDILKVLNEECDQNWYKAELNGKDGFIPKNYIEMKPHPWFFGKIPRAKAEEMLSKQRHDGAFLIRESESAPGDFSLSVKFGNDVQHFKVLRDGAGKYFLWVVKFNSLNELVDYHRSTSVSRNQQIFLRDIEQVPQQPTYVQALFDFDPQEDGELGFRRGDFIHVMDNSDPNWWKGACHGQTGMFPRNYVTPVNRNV
Test: SH2 binding enrichment of the phosphorylated peptide, bacterial display (enrichment ratio); higher = better substrate or ligand; peptides without Tyr show the background
Label scheme for SH2 binding enrichment: lower than 0.8 is False, 0.8 and above is True.

Check out these entries, answers already filled in.
>  <sequence-chain>
SKKSTYRALLD [GANC_Y43_Q44R]

>  <assayed-system>
Grb2 SH2 (UniProt P62993)

>  <category>
False

$$$$
>  <sequence-chain>
WNDLDYVDSRR [GAA_Y407_M408V]

>  <assayed-system>
Grb2 SH2 (UniProt P62993)

>  <category>
True

$$$$
>  <sequence-chain>
TNRSFYFKPSL [NUP153_Y382_V381F]

>  <assayed-system>
Grb2 SH2 (UniProt P62993)

>  <category>
True

$$$$
>  <sequence-chain>
SSAAGYACLAF [MVD_Y131_YF]

>  <assayed-system>
Grb2 SH2 (UniProt P62993)

>  <category>
False

$$$$

Kindly consider the entry below.
Does RFVTRHIFNRE [HLA-DQB1_Y62_Y62H_YF] have a reported SH2 binding enrichment of at least 0.8?
False

* * *

Molecular target: SHP2-C SH2
Assay: SH2 binding enrichment of the phosphorylated peptide, bacterial display (enrichment ratio); higher = better substrate or ligand; peptides without Tyr show the background
measured-metric: SH2 binding enrichment
The answer should be written as a number, with no unit following it.

>  <sequence-chain>
PLGPLYASSNP [INSR_Y992]

>  <SH2 binding enrichment>
0.709

$$$$

Please tell me: SH2 binding enrichment of DHPSEYAARQL [ANXA13_Y90_R86H] , system SHP2-C SH2?
0.657

Please tell me: SH2 binding enrichment of PFTRNYYVWAV [CYBA_Y87_R90W] , system SHP2-C SH2?
1.54

Please tell me: SH2 binding enrichment of WRPFGYPRRRR [BCS1L_Y181] , system SHP2-C SH2?
0.66

Please tell me: SH2 binding enrichment of RLLVVYPWTQG [HBG2_Y36_R41G] , system SHP2-C SH2?
1.82
